These data points were gathered from ChEMBL document CHEMBL1201862.

Measured GI50 accompanies every entry in the list below.
System: SW-620
Experiment: NCI tumour cell line growth inhibition, 48 h
Active and inactive are the calls of the source. Rule as the data show it: active = GI50 up to about 1.1 µM and inactive = higher.

The following compounds have reported results that may help.
[
  {
    "Compound": "COC(CN(C=O)[C@@H](c1ccc(Cl)cc1)c1cc2ccccc2o1)OC",
    "GI50": "16.6 µM (inactive)"
  },
  {
    "Compound": "Fc1cccc(Cl)c1C1SCc2nc3ccccc3n21 (stereo not given)",
    "GI50": "37.2 µM (inactive)"
  },
  {
    "Compound": "Nc1ncnc2c1ncn2[C@@H]1C[C@H]1CO",
    "GI50": "> 100 µM (inactive)"
  },
  {
    "Compound": "COc1cc(C(c2cc(OC)c(OC)c(OC)c2)N2C(=O)CCC2C(=O)O)cc(OC)c1OC (stereo not given)",
    "GI50": "> 100 µM (inactive)"
  },
  {
    "Compound": "CC1CCC2c3c([nH]c4ccccc34)C3C(=O)N(C4CCCCC4)C(=O)C3C2C1 (stereo not given)",
    "GI50": "67.3 µM (inactive)"
  }
]

May I ask what GI50 has been recorded for NC(=O)c1ncn(Cc2ccccc2)c1CNC(N)=S ? > 100 µM (inactive)

May I ask what GI50 has been recorded for COc1ccc(C2(C3c4cc(OC)c(OC)cc4CCN3C)SCCCS2)cc1O (stereo not given) ? > 100 µM (inactive)

May I ask what GI50 has been recorded for Oc1ccc(Cl)cc1-c1nc(S)nc(-c2ccccc2)c1Cl ? > 100 µM (inactive)

May I ask what GI50 has been recorded for c1ccc(C(=NCCC2CNc3ccccc32)c2ccccc2)cc1 (stereo not given) ? > 100 µM (inactive)

May I ask what GI50 has been recorded for O=C1C=C[C@@]23C[C@@H](NC4=C2C2=NCCc5c[nH]c(c52)C4=O)SC3=C1 ? 3.15 µM (inactive)

----------
System: SF-295
Experiment: NCI tumour cell line growth inhibition, 48 h
Calls of active or inactive are those of the source. Cut-off read from the data, not from the text of the source: active = GI50 up to about 1.1 µM and inactive = higher.
Measured GI50 accompanies every entry in the list below.

The following compounds have reported results that may help.
[
  {
    "Compound": "COC(=O)C(=O)C(C(=O)C(=O)Nc1ccc([N+](=O)[O-])cc1[N+](=O)[O-])c1nc2ccc([N+](=O)[O-])cc2nc1O (stereo unspecified)",
    "Result": "> 100 µM (inactive)"
  },
  {
    "Compound": "O=[N+]([O-])c1ccc(Cl)cc1N/N=C/c1cccs1",
    "Result": "> 100 µM (inactive)"
  },
  {
    "Compound": "COC(CN(C=O)[C@@H](c1ccc(Cl)cc1)c1cc2ccccc2o1)OC",
    "Result": "16.9 µM (inactive)"
  },
  {
    "Compound": "CC(NC(CC12CC3CC(CC(C3)C1)C2)C(N)=O)c1ccccc1 (stereo unspecified)",
    "Result": "13 µM (inactive)"
  },
  {
    "Compound": "CN(C)c1ccc(C(=C(c2ccc(N(C)C)cc2)c2ccc(N(C)C)cc2)c2ccc(N(C)C)cc2)cc1",
    "Result": "13.9 µM (inactive)"
  }
]

May I ask what GI50 has been recorded for O=C(O)CCc1nc2c(n1Cc1ccccc1)C(=O)c1ccccc1C2=O ? 59.6 µM (inactive)

May I ask what GI50 has been recorded for Cn1c(=O)oc2cc(C(=S)N3CCCCC3)ccc21 ? > 100 µM (inactive)

May I ask what GI50 has been recorded for CC1(C)CN=C(c2ccc3ccccc3c2O)N1 ? 2.27 µM (inactive)

May I ask what GI50 has been recorded for CCOP(=O)(OCC)C(C(=O)OC)C(=O)C(=O)Nc1cccc([N+](=O)[O-])c1 (stereo unspecified) ? > 100 µM (inactive)

----------
Tested on: HCT-15
Measured GI50 accompanies every entry in the list below.
Unit µM implied. Number only.

The following molecules have reported results that may help.
[
  {
    "Molecule": "[O-]/[N+](=C\\c1ccccc1OC(=S)S)c1ccc(Cl)cc1",
    "Result Unit": "µM",
    "GI50": 15.7
  },
  {
    "Molecule": "COC1CC(O[C@H]2CC[C@@]3(C)[C@@H](CC[C@]4(O)[C@@H]3CC[C@]3(C)[C@@H](C(C)=O)[C@H](OC(=O)CC(C)C)[C@@H](OC(=O)c5ccccc5)[C@@]34O)C2)OC(C)C1OC1CC(OC)C(OC2OC(C)C(O)C(OC)C2O)C(C)O1 (stereo partly drawn)",
    "Result Unit": "µM",
    "GI50": 9.95
  }
]

The record that follows has no GI50 shown yet.
Identify the measured GI50 of [N-]=[N+]=Nc1ccc2c(c1)Sc1ccccc1N2CCCCN1CCN(Cc2ccc(C(=O)c3ccc(CSCC(N)C(=O)O)cc3)cc2)CC1 (stereo not drawn) for HCT-15. 14.2

----------
Test system: SF-539
Test: NCI tumour cell line growth inhibition, 48 h
Active and inactive are the calls of the source. Cut-off read from the data, not from the text of the source: active = GI50 up to about 1.1 µM and inactive = higher.
Measured GI50 accompanies every entry in the list below.

[
  {
    "Molecule": "CN1CCC(CNC(=O)CCCCCCCCC(=O)NCC2(c3ccccc3)CCN(C)CC2)(c2ccccc2)CC1",
    "GI50": "15 µM (inactive)"
  },
  {
    "Molecule": "CC(NNC(=O)c1ccncc1)c1ccc(Cl)c(Cl)c1 (stereo not drawn)",
    "GI50": "> 100 µM (inactive)"
  },
  {
    "Molecule": "COc1cc(C2c3cc4c(cc3OC(C)(O)C2C)OCO4)cc(OC)c1OC (stereo not drawn)",
    "GI50": "0.277 µM (active)"
  },
  {
    "Molecule": "C[C@]12CCc3nonc3C1CC[C@@H]1C2CC[C@]2(C)C(=O)CCC12 (stereo partly drawn)",
    "GI50": "20.9 µM (inactive)"
  },
  {
    "Molecule": "Cc1cn(C2CC(n3cc(Cn4cc(I)c(=O)[nH]c4=O)nn3)C(CO)O2)c(=O)[nH]c1=O (stereo not drawn)",
    "GI50": "> 100 µM (inactive)"
  },
  {
    "Molecule": "C=C(C)C(=O)O[C@H]1C/C(CO)=C/CCC(=C)C(OC(C)=O)[C@H]2OC(=O)C(=C)[C@H]12 (stereo partly drawn)",
    "GI50": "13.6 µM (inactive)"
  },
  {
    "Molecule": "Cc1cc(C)c2c(=O)n(CC(O)CN3CCN(c4ncccn4)CC3)sc2n1 (stereo not drawn)",
    "GI50": "17.8 µM (inactive)"
  },
  {
    "Molecule": "Cc1cc(Nc2ccc(S(=O)(=O)O)c3cc(S(=O)(=O)O)cc(S(=O)(=O)O)c23)c2ccccc2n1",
    "GI50": "> 100 µM (inactive)"
  }
]

May I ask what GI50 has been recorded for COC(=O)C1=Cc2c(cc(OC)c(OC)c2OC)[C@H](c2ccc(OC)c(OC)c2OC)C1C(=O)OC (stereo partly drawn) ? > 100 µM (inactive)

May I ask what GI50 has been recorded for CCCCN(CCCC)C(=O)C(=O)C(C(=O)c1ccc(OC)cc1)c1ccc(OC)cc1 (stereo not drawn) ? > 100 µM (inactive)

----------
Test system: NCI-H522
Assay: NCI tumour cell line growth inhibition, 48 h
Active and inactive are the calls of the source. No stated cut-off is given here; in the data, active = GI50 up to about 1.1 µM and inactive = higher.
// classify into active, inactive

Examples with answers:
[
  {
    "Molecule": "CCOc1cc2c(c(OCC)c1O)CC[C@@H]1[C@@H]2CC[C@]2(C)[C@@H](O)CC[C@@H]12",
    "Assigned Class": "active"
  },
  {
    "Molecule": "CC(=O)Oc1cc2c[n+](C)c3c4cc(OC(C)=O)c(OC(C)=O)cc4ccc3c2cc1OC(C)=O",
    "Assigned Class": "active"
  },
  {
    "Molecule": "O=C1OC(CC(=O)c2ccc(F)cc2)C(Cl)=C1Cl (stereo unspecified)",
    "Assigned Class": "inactive"
  },
  {
    "Molecule": "Cc1cc(SCC(=O)c2ccccc2)nc2ccccc12",
    "Assigned Class": "inactive"
  },
  {
    "Molecule": "Nc1ncnc2c1ncn2[C@@H]1C[C@H]1CO",
    "Assigned Class": "inactive"
  }
]

Please turn your attention to the following entry.
Tell me the assay call for Cc1cccc(C)c1NC(=O)/C(Cl)=C(/Cl)C(=O)O please. inactive

----------
Tested on: MCF7
Test: NCI tumour cell line growth inhibition, 48 h
Calls of active or inactive are those of the source. No stated cut-off is given here; in the data, active = GI50 up to about 1.1 µM and inactive = higher.
Measured GI50 accompanies every entry in the list below.

The following compounds have reported results that may help.
[
  {
    "Compound": "O=C1C=C[C@@]23C[C@@H](NC4=C2C2=NCCc5c[nH]c(c52)C4=O)SC3=C1",
    "Result": "3.82 µM (inactive)"
  },
  {
    "Compound": "c1ccc(/N=C(/Nc2ccccc2)N2CCCCC2)cc1",
    "Result": "68.7 µM (inactive)"
  },
  {
    "Compound": "CN(C)/C=N/S(=O)(=O)c1nn2c(C=O)c(-c3ccc([N+](=O)[O-])cc3)nc2s1",
    "Result": "4.68 µM (inactive)"
  },
  {
    "Compound": "C=CCOC(=O)c1c(C)[n+]([O-])c2cc(Cl)c(Cl)cc2[n+]1[O-]",
    "Result": "20.5 µM (inactive)"
  },
  {
    "Compound": "CC1=NN(C(=O)CC(=O)Nc2ccc(Cl)cc2)C(=O)C1/N=N\\c1ccc(S(=O)(=O)c2ccc(/N=N/C3C(=O)N(C(=O)CC(=O)Nc4ccc(Cl)cc4)N=C3C)cc2)cc1 (stereo unspecified)",
    "Result": "> 100 µM (inactive)"
  }
]

May I ask what GI50 has been recorded for CC1OC(O[C@H]2C3C=CO[C@@H](OC4OC(CO)C(O)C(O)C4O)C3[C@@]3(COC(=O)/C=C/c4ccc(O)cc4)O[C@@H]23)C(O)C(O)C1O (stereo partly specified) ? > 100 µM (inactive)
